I'd appreciate it if you could supply [35S]GTPγS accumulation IC50, GRO-α values for the items below.
- tested.on: T1, Human CXCR2 (human, UniProt P25025 1-360)
- T1 sequence: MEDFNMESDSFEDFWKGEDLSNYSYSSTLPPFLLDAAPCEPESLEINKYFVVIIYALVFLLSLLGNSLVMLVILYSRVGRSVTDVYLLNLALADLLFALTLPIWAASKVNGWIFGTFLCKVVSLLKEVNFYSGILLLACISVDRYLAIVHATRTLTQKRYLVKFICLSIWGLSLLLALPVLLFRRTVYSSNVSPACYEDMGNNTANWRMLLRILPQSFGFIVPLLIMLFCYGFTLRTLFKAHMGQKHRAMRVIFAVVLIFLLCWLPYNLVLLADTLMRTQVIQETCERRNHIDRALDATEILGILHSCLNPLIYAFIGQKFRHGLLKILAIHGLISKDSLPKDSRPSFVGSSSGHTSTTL
- test.protocol: cell-based or functional assay
One number for each entry, in nM.

query: Param item = 2B2 (VHH, not shown: small tags and cut ends) VHH: EVQLVESGGELVQPGGSLRLSCAASGSILTINAMGWYRQAPGKQRELVVRRTRGGSTTYQDSVKGRFTISADIAKKTMYLQMNSLKPEDTAVYYCMLDDRGGVYWGQGTQVTVSS ; retrieve measured [35S]GTPγS accumulation IC50, GRO-α.
result: 103

query: Param item = 163E03 (VHH, not shown: small tags and cut ends) VHH: EVQLVESGGGLVQPGGSLRLSCVASGRIFSSNAMGWFRQAPGKEREFVAAITWRSGGSAYYADSAKGRFTISRDNAKNTVYLQMNSLKPEDTAVYYCAAGGSSWLSFPPDYWGQGTQVTVSS ; retrieve measured [35S]GTPγS accumulation IC50, GRO-α.
result: 64.7

query: Param item = 54B12 (VHH, not shown: small tags and cut ends) VHH: EVQLVESGGGLVQAGGSLTLSCAVSGSTFRINTMGWYRRAPGKQRELVAARDRGGYINYVDSVKGRFTVSRDNAKPTMYLQMNSLKPEDTAVYYCHAGTQDRTGRNFDRWGQGTQVTVSS ; retrieve measured [35S]GTPγS accumulation IC50, GRO-α.
result: 15.4

Give one value of [35S]GTPγS accumulation IC50, GRO-α per listed binder.
1. 097A09 (VHH, not shown: small tags and cut ends) VHH: EVQLVESGGGLVQPGGSLRLSCVASGSIVRINTMGWYRQTPGKQRELVADITSGGNINYIDAVKGRFTISRDNTKNTVYLQMNSLKPEDTAVYYCNAEIVVLVGVWTQRARTGNYWGQGTQVTVSS
2. 127D01 (VHH, not shown: small tags and cut ends) VHH: EVQLVESGGGLVQAGESLRLSCAASGSTFDFKVMGWYRQPPGKQREGVAAIRLSGNMHYAESVKGRFTISKANAKNTVYLQMNSLRPEDTAVYYCKVNIRGQDYWGQGTQVTVSS
3. 163D02 (VHH, not shown: small tags and cut ends) VHH: EVQLVESGGGLVQAGGSLRLSCAASGRTFSDYAMGWFRQAPGKEREFVAAITWNGGRVFYTASVKGRFTISRDNAKNTMYLQMNSLKPEDTAVYYCAADKDRRTDYLGHPVAYWGQGTQVTVSS

result:
1: 50.3; 2: 12.5; 3: 53.2

# credit: patent US20170101476A1
